# Tested on: U373V
# Assay Protocol: MTT assay for 7-day toxicity, U373V glioma cells (vector control, MGMT-)
# Type: cell-based
# Condition Info: Glioma cell, 168 h, 7 day MTT assay, glioma line U373V
Quantity Measured: GI50

- Compound: "CSCn1nnc2c(-c3nc(-c4ccsc4)cs3)ncn2c1=O [WW-035]"
  Quantity Measured: "GI50"
  Result: "< 75 µM"
- Compound: "COCn1nnc2c(-c3nc(-c4ccccc4)cs3)ncn2c1=O [WW-016]"
  Quantity Measured: "GI50"
  Result: "< 75 µM"
- Compound: "C#CCn1nnc2c(-c3nc(-c4ccc(S(C)(=O)=O)cc4)cs3)ncn2c1=O [WW-025]"
  Quantity Measured: "GI50"
  Result: "< 75 µM"
- Compound: "COCn1nnc2c(/C=C/c3cccs3)ncn2c1=O [MM-004]"
  Quantity Measured: "GI50"
  Result: "4.4 µM"
- Compound: "C#CCn1nnc2c(-c3ncc(-c4ccccc4)o3)ncn2c1=O [WW-040]"
  Quantity Measured: "GI50"
  Result: "< 75 µM"
- Compound: "Cn1nnc2c(C(N)=O)ncn2c1=O [TMZ, temozolomide, reference compound]"
  Quantity Measured: "GI50"
  Result: "72.9 µM"
- Compound: "Cn1nnc2c(-c3nc(-c4cccs4)cs3)ncn2c1=O [WW-011]"
  Quantity Measured: "GI50"
  Result: "< 75 µM"
- Compound: "C[S+]([O-])Cn1nnc2c(-c3nc(-c4cccs4)cs3)ncn2c1=O (stereo not shown) [WW-036]"
  Quantity Measured: "GI50"
  Result: "< 75 µM"
- Compound: "C#CCn1nnc2c(-c3nc(-c4ccccc4)cs3)ncn2c1=O [WW-004]"
  Quantity Measured: "GI50"
  Result: "< 75 µM"
- Compound: "Cn1nnc2c(-c3nnc(-c4ccccc4)o3)ncn2c1=O [WW-041]"
  Quantity Measured: "GI50"
  Result: "< 75 µM"
- Compound: "C#CCn1nnc2c(-c3nc4ccccc4[nH]3)ncn2c1=O [WW-063]"
  Quantity Measured: "GI50"
  Result: "< 75 µM"
- Compound: "C#CCn1nnc2c(-c3nc(-c4cccc(Cl)c4)cs3)ncn2c1=O [WW-023]"
  Quantity Measured: "GI50"
  Result: "< 75 µM"
- Compound: "COCn1nnc2c(/C=C/c3ccc(C#N)cc3)ncn2c1=O [MM-001]"
  Quantity Measured: "GI50"
  Result: "7.7 µM"
